# maps each entry to its kon
target or test system: human full-length VWF (human, UniProt P04275 764-2813)
procedure details: SPR, Biacore T200, antibody captured on Protein A, full-length VWF as analyte, single-cycle kinetics
Field format: number, assumed M⁻¹ s⁻¹, no unit text.

Observe how each entry below is paired with its result.
binder	kon (M⁻¹ s⁻¹)
1-A2_H1_L1 (antibody, human IgG1, kappa, V domains shown, humanised, human IgG1 kappa) VH: QVQLVESGGGVVQPGRSLRLSCAASGIDLTSNAMNWVRQAPGKGLEWVAGIYGHDTSYYAAWAKGRFTISRDNSKNTLYLQMNSLRAEDTAVYYCARGFIYFDIWGQGTLVTVSS VL: DIQMTQSPSSLSASVGDRVTITCLASEDIYSGISWYQQKPGKAPKLLIYGASNLESGVPSRFSGSGSGTDYTLTISSLQPEDFATYYCLGGHSHSTTDLTFGGGTKVEIKT	23800
1-A2_H0_L1 (antibody, human IgG1, kappa, V domains shown, humanised, human IgG1 kappa) VH: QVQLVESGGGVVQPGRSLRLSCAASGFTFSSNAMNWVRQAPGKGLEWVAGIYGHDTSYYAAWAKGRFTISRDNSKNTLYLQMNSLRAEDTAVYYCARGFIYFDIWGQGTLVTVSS VL: DIQMTQSPSSLSASVGDRVTITCLASEDIYSGISWYQQKPGKAPKLLIYGASNLESGVPSRFSGSGSGTDYTLTISSLQPEDFATYYCLGGHSHSTTDLTFGGGTKVEIKT	63200

Okay, next one:
Sample 1-A2_H2_L0 (antibody, human IgG1, kappa, V domains shown, humanised, human IgG1 kappa) VH: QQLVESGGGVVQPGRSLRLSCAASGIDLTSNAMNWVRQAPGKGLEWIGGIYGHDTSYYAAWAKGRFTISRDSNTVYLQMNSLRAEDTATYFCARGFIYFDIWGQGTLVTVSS VL: DIQMTQSPSSLSASVGDRVTITCLASEDIYSGISWYQQKPGKAPKLLIYGASNLESGVPSRFSGSGSGTDFTLTISSLQPEDFATYYCLGGHSHSTTDLTFGGGTKVEIKT ; kon observed: 36100
